Molecular target: MAL^TIR (Homo sapiens)
Construct: MAL (residues 79–221); 6xHis; made in house; host or cells: E. coli BL21 (DE3)
Sequence (P58753 79-221): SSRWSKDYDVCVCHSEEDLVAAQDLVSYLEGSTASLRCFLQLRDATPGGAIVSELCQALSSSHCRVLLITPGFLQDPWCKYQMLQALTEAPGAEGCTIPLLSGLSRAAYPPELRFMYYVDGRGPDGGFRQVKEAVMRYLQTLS
Assay: T‐Surf phage library (P8 and P3) selection against MAL^TIR, four rounds, NGS read counts
Assay type: binding
Settings: P3 library, selection against MAL, rank after grouping
Protocol: T‐Surf libraries were screened against the immobilized TIR domains of two major human TLR adaptor proteins, MAL^TIR and MyD88^TIR, allowing cross‐species selection of TIR‐binding motifs with 190 946 TIR‐derived peptides in a single binding assay (Scheme 1). Enriched phage pools from the fourth round of selection were analyzed using NGS after barcoding the peptide‐coding regions of the phage pools. […]
property.measured: P3_MAL Rank (after)

seq | property.measured | reported.result
SSFREGLWRLLELSKLRYAM | P3_MAL Rank (after) | 558
YAFTDHLHRYLVQRSE | P3_MAL Rank (after) | 555
RGFLSHLRHHLPAKDQ | P3_MAL Rank (after) | 498
RGLLSQLRHHLQAKDH | P3_MAL Rank (after) | 578
DWSLSKLSQHFLKREK | P3_MAL Rank (after) | 485
NQCRNALTPAAKLSSL | P3_MAL Rank (after) | 538
RGFLNQLRQHLHAKDH | P3_MAL Rank (after) | 548
HHKGSYGEALHQFHSWV | P3_MAL Rank (after) | 541
ESILNHPRRSSQILSN | P3_MAL Rank (after) | 516
